Tested on: NCI-H322M
Test: Growth inhibition of human NCI-H322M cells after 48 hrs by SRB assay
Assay type: functional
QUANTITY MEASURED: GI50 (nM)
Could you give me the number in nM? Just the number is fine.

COc1ccc(-c2nn[nH]c2-c2cc(OC)c3c(c2OC)OCO3)cc1: 2890
COc1ccc(-c2nn[nH]c2-c2cc(OC)c3c(c2)OCO3)cc1: 57
COc1ccc(/C=C\c2cc(OC)c(OC)c(OC)c2)cc1O: 7

Now turn to the next molecule.
Measured GI50, COc1ccc(-c2cnnn2-c2cc(OC)c3c(c2)OCO3)cc1 : 673
